src = PubChem BioAssay (NCI)

Tested on: EKVX NSCLC
Test: NCI tumour cell line growth inhibition, 48 h
Here the recorded TGI is given for each entry.

{"columns": ["COMPOUND", "TGI"],
 "data": [
  ["COc1ccc(/C=C/C(=O)c2cc(CN(C)C)c(O)c(CN(C)C)c2)cc1", "> 100 µM"],
  ["C=C1c2nc3ccccc3n2C=C(c2ccccc2)N1c1ccc(C)cc1", "> 100 µM"],
  ["CC(C)(O)c1cc(Nc2cc(Oc3cn(C4CC4)nc3C3CCOCC3)ccn2)ccn1", "> 100 µM"],
  ["COc1ccc(C(=O)Cn2c(C(=O)c3ccc(Cl)cc3)nc(-c3ccccc3)c2-c2ccccc2)cc1", "> 100 µM"],
  ["CSCSCC(CO)NC(=O)/C=C\\c1c(C)[nH]c(=O)[nH]c1=O (configuration not stated)", "153 µM"],
  ["C=CC(C)(C)/C(=C\\CO[Si](C(C)C)(C(C)C)C(C)C)C(=O)N(C)c1ccccc1I", "32.1 µM"],
  ["CCOC1=C/C(=N\\Nc2ccc([N+](=O)[O-])cc2)CCC1", "> 100 µM"]
]}

----------
System: SK-OV-3 ovarian
Test: NCI tumour cell line growth inhibition, 48 h
Overview of recorded TGI for various compounds

{"columns": ["COMPOUND", "LIMIT OPERATOR", "TGI, µM"],
 "data": [
  ["CSCSCC(CO)NC(=O)/C=C\\c1c(C)[nH]c(=O)[nH]c1=O (centres undefined)", "=", 74],
  ["C[C@@H]([C@H]1CC[C@@]2(C)[C@@H]3CC[C@@H]4C(=CC3=CC[C@]12C)CC[C@H](N(C)C)C4(C)C)N(C)C", ">", 100],
  ["COc1ccc(OCC(=O)O)c2c1CCC(C)C2=O (centres undefined)", ">", 100],
  ["Cn1cc(-c2csc(-c3ccc(Cl)cc3)n2)c2cccnc21", "=", 39.2],
  ["Cc1ccc(N=Nc2c(O)ccc3ccccc23)c(C)c1", ">", 100],
  ["CCCC(=O)Nc1cc(/C=C/C(=O)N2C[C@@H]3C[C@]34C2=CC(=O)c2[nH]cc(C)c24)n(C)c1", "=", 7.97],
  ["Cc1cc(C)nc(NC(=O)COc2ccc(Cl)cc2)c1", ">", 100],
  ["CN(C)C(=S)/N=c1\\ssc(=Nc2ccccc2)n1-c1ccccc1", "=", 80.5],
  ["CCOC1=C/C(=N\\Nc2ccc([N+](=O)[O-])cc2)CCC1", ">", 100]
]}

----------
Tested on: ACHN renal
Experiment: NCI tumour cell line growth inhibition, 48 h; in the data active = GI50 below about 0.43 µM; inactive = the rest
Outcomes: t = active, f = inactive

{"columns": ["CHEMICAL STRING", "CLASS LABEL"],
 "data": [
  ["Cc1nc(C(=O)OCc2ccccc2)cc(OCc2ccccc2)c1C", "f"],
  ["CCOc1ccc2cc(-c3nn(CC4CCN(C)CC4)c4ncnc(N)c34)ccc2c1", "f"],
  ["COc1ccc2c(CN3CCCC[C@H]3O)cc3cc4c(cc3c2c1)OCO4", "t"],
  ["O=C1c2ccccc2-c2c1c1ccccc1c(=O)n2CCNCCNCCNCCNCCn1c2c(c3ccccc3c1=O)C(=O)c1ccccc1-2", "t"],
  ["CSCc1ncc(-c2ccc(C(F)(F)F)cc2)c(NC2CCCCCC2)n1", "f"]
]}

----------
System: U251 CNS

{"columns": ["CHEMICAL STRING", "TEST SYSTEM", "GI50"],
 "data": [
  ["COc1cc(N)c(Cl)cc1C(=O)N[C@@H]1CCN(CCCOc2ccc(F)cc2)C[C@@H]1OC", "U251 CNS", "> 100 µM"],
  ["COC(=O)c1c(C(=O)O)c(-c2ccccc2)c(-c2ccccc2)c(-c2ccccc2)c1-c1ccccc1", "U251 CNS", "> 100 µM"],
  ["COC(=O)N[C@@H](C)CNc1nccc(-c2cn(C(C)C)nc2-c2cc(Cl)cc(NS(C)(=O)=O)c2F)n1", "U251 CNS", "59.5 µM"],
  ["Cc1cc(C)c(-c2c(O)c(Br)c(-c3c(C)cc(C)c(Br)c3C)c(O)c2Br)c(C)c1Br", "U251 CNS", "2.28 µM"]
]}

----------
System: OVCAR-4 ovarian
Assay: NCI tumour cell line growth inhibition, 48 h; in the data active = GI50 below about 0.43 µM; inactive = the rest
Outcome codes: 1 for active, 0 for inactive

{"columns": ["CHEMICAL STRING", "TEST SYSTEM", "CLASS LABEL"],
 "data": [
  ["C=C(CN1CCc2ccccc2C1)c1ccc(CCCC(=O)Nc2ccccc2N)cc1", "OVCAR-4 ovarian", 0],
  ["COc1ccc(/C=C(\\C#N)c2cc(OC)c(OC)c(OC)c2)cc1", "OVCAR-4 ovarian", 1],
  ["COc1cc(C=NCC(=O)CSC(c2ccccc2)c2ccccc2)ccc1O", "OVCAR-4 ovarian", 0],
  ["COc1ccc(-c2cn3ccnc3c(-c3ccc(Cl)cc3)n2)cc1", "OVCAR-4 ovarian", 0],
  ["CC(C)(C)OC(=O)NCCCCCCCCCCCCn1c2c(c3ccccc3c1=O)C(=O)c1ccccc1-2", "OVCAR-4 ovarian", 0]
]}

----------
Tested on: SNB-19 CNS
Assay: NCI tumour cell line growth inhibition, 48 h
PARAMETER MEASURED: TGI

{"columns": ["MOLECULE", "REPORTED VALUE"],
 "data": [
  ["C=C(CN1CCc2ccccc2C1)c1ccc(CCCC(=O)Nc2ccccc2N)cc1", "> 100 µM"],
  ["C=C(c1ccccc1)c1cc2c(=O)[nH]ccc2n1C", "> 100 µM"],
  ["NCCCNCCSP(=O)(O)O", "> 750 µM"],
  ["C/C(N=NS(=O)(=O)c1c(C)cc(C)cc1C)=C1\\C=CC=CN1O", "> 100 µM"],
  ["COC1CCC(OC)C(c2nc3sccn3c2/C=N/N=C(N)N)C1 (stereo unspecified)", "> 96.4 µM"],
  ["CCOC(=O)NN1C(=O)C(=P(c2ccccc2)(c2ccccc2)c2ccccc2)C(C(=O)OC)=C1C", "> 100 µM"]
]}

----------
Tested on: NCI-H522 lung
Assay: NCI tumour cell line growth inhibition, 48 h
Listed compounds paired with reported TGI
PARAMETER MEASURED: TGI

{"columns": ["COMPOUND", "REPORTED VALUE"],
 "data": [
  ["CC(C)=CCNc1ncnc2c1ncn2CCC(=O)O", "> 100 µM"],
  ["NCCOCCOCC(=O)O", "> 100 µM"],
  ["Cc1noc(-c2ccc(C(=O)O)[nH]2)c1Br", "> 100 µM"],
  ["C/C(CC(O)(C(F)(F)F)C(F)(F)F)=N\\O", "> 10 µM"],
  ["CN1Cc2ccccc2C2(COc3ccccc3C2=O)C1 (stereo unspecified)", "> 100 µM"],
  ["C=C1c2nc3ccccc3n2C=C(c2ccccc2)N1c1ccc(C)cc1", "> 100 µM"]
]}

----------
Tested on: HCT-15 colon
Test: NCI tumour cell line growth inhibition, 48 h
Listed here: items and their measured TGI.
PARAMETER MEASURED: TGI

{"columns": ["COMPOUND", "PARAMETER MEASURED", "REPORTED VALUE"],
 "data": [
  ["O=S1(=O)CCC2=CC(C(F)(F)F)=CC(C(F)(F)F)=CN21", "TGI", "1.5 µM"],
  ["Cc1cc2ccccc2n2c1nc1ccc(O)cc12", "TGI", "> 10 µM"],
  ["N#C/C(=C/C=C/c1cccc(Cl)c1)S(=O)c1ccccc1 (configuration not stated)", "TGI", "0.56 µM"],
  ["COc1ccc(NCn2nc(CCCCCCCCc3nn(CNc4ccc(OC)cc4)c(=S)o3)oc2=S)cc1", "TGI", "> 100 µM"],
  ["O=[N+]([O-])/C(Cl)=C(\\NCCO)C(Cl)=C(Cl)Cl", "TGI", "76.8 µM"],
  ["Fc1ccc(-c2ncn(C3CCNCC3)c2-c2ccnc(Oc3ccc(Cl)cc3)n2)cc1", "TGI", "9.46 µM"],
  ["COc1cccc(C=NC23CC4CC(CC(C4)C2)C3)c1", "TGI", "> 100 µM"],
  ["O=C(NNC(=O)c1ccncc1)C(=O)Nc1cc(Cl)c(Cl)cc1Cl", "TGI", "> 100 µM"],
  ["COc1ccc(N=c2nc3sc4cc(Cl)ccc4n3c(N)c2C#N)cc1", "TGI", "> 31.1 µM"],
  ["Cc1ccc(N=Nc2c(O)ccc3ccccc23)c(C)c1", "TGI", "> 100 µM"],
  ["Oc1c(NCn2nc(CCCCCCCCc3nn(CNc4ccc5ccccc5c4O)c(=S)o3)oc2=S)ccc2ccccc12", "TGI", "> 100 µM"],
  ["C[C@@H]1CC2(C[C@@H](C)C3[C@@H](CC4(C)CCCC5C6=CC(O)(CC[C@]34C)OC6=CC(=O)OC5(C)C)O2)OC1=O (some centres not stated)", "TGI", "> 100 µM"],
  ["O=S1(=O)N=C(SCc2c[nH]c3ccccc23)N(c2ccccc2)c2ccncc21", "TGI", "> 100 µM"],
  ["O=C1c2ccccc2-c2c1c1ccccc1c(=O)n2CCNCCNCCNCCNCCn1c2c(c3ccccc3c1=O)C(=O)c1ccccc1-2", "TGI", "2.56 µM"],
  ["CSCSCC(CO)NC(=O)/C=C\\c1c(C)[nH]c(=O)[nH]c1=O (configuration not stated)", "TGI", "214 µM"],
  ["COc1ccc(OCC(=O)O)c2c1CCC(C)C2=O (configuration not stated)", "TGI", "> 100 µM"],
  ["COc1cc(C=NCC(=O)CSC(c2ccccc2)c2ccccc2)ccc1O", "TGI", "30.8 µM"],
  ["CCOP(=O)(OCC)C(c1ccccc1)N(C(=O)NC(F)(F)F)c1ccc(C)cc1 (configuration not stated)", "TGI", "> 100 µM"],
  ["Clc1cc(Cl)nc(Nc2ccc3c(c2)CCC3)n1", "TGI", "> 100 µM"],
  ["COc1ccc(CN2c3ccccc3Sc3ccccc32)cc1O", "TGI", "11.8 µM"],
  ["O=C1C(=O)N(c2cc(Cl)ccc2Cl)C(=O)C(=O)C1c1nc2ccccc2s1", "TGI", "> 100 µM"],
  ["CC(=O)c1c(-c2ccco2)c(C#N)c(=S)n(C2OC(CO)C(O)C(O)C2O)c1C (configuration not stated)", "TGI", "> 100 µM"],
  ["CCOC(=N)CC(=O)Nc1ccccc1CC", "TGI", "> 100 µM"],
  ["NCCCNCCSP(=O)(O)O", "TGI", "> 645 µM"],
  ["COc1ccc(C2C3=C(COC3=O)Oc3cc4c(cc32)OCO4)cc1OC (configuration not stated)", "TGI", "> 100 µM"],
  ["Cc1cccc(NC(=S)Nc2cccc(Cl)c2)n1", "TGI", "> 100 µM"],
  ["Cc1c2cc[n+](C)cc2c(C)c2c1[nH]c1ccc(OCC(F)(F)F)cc12", "TGI", "> 100 µM"],
  ["O=C(CCC(NC(=O)OCc1ccccc1)C(=O)OCc1ccccc1)Nc1cccc(OCc2ccccc2)c1 (configuration not stated)", "TGI", "38.8 µM"],
  ["Cc1cccc(C=NC23CC4CC(CC(C4)C2)C3)c1", "TGI", "> 100 µM"],
  ["Cc1cc(C)c(-c2c(O)c(Br)c(-c3c(C)cc(C)c(Br)c3C)c(O)c2Br)c(C)c1Br", "TGI", "10.8 µM"],
  ["CC(=O)/C(=N\\N=C(N)N)c1ccccc1", "TGI", "> 100 µM"],
  ["CCOC(=O)NN1C(=O)C(=P(c2ccccc2)(c2ccccc2)c2ccccc2)C(C(=O)OC)=C1C", "TGI", "> 100 µM"],
  ["COc1ccc(N=C(C)C(C)=Nc2ccc(OC)cc2)cc1", "TGI", "> 100 µM"],
  ["CC(NC1CCCC[C@@H]1O)c1ccccc1 (some centres not stated)", "TGI", "> 100 µM"],
  ["CNC(=O)NCCCCC(NC(C)=O)C(=O)NCc1ccccc1 (configuration not stated)", "TGI", "> 100 µM"],
  ["CCN(CC)c1ccc(/C=N/N=C(N)N)cc1", "TGI", "55.8 µM"],
  ["Nc1ccccc1SC(/C=C/NNC1=NC(c2ccccc2)C(c2ccccc2)=NN1)c1ccccc1 (configuration not stated)", "TGI", "32 µM"],
  ["COc1cc(N)c(Cl)cc1C(=O)N[C@@H]1CCN(CCCOc2ccc(F)cc2)C[C@@H]1OC", "TGI", "> 100 µM"],
  ["CN1CCC(O)(OC(=O)C(c2ccccc2)C2(O)CCCC2)CC1 (configuration not stated)", "TGI", "> 100 µM"],
  ["C(=Nc1ccc(-c2nc3ccccc3s2)cc1)c1cccs1", "TGI", "> 100 µM"],
  ["C[C@]12CC[C@H](OC(=O)Nc3ccccc3)CC1=CC[C@@H]1C2CC[C@]2(C)/C(=N/OC(=O)Nc3ccccc3)CCC12 (some centres not stated)", "TGI", "3.31 µM"],
  ["CCCCS(=O)(=O)c1cc(Nc2ccc(O)c3c2C(=O)c2ccccc2C3=O)ccc1C", "TGI", "> 100 µM"]
]}
